# measuredTarget: Trace amine-associated receptor 1 (Mus musculus, UniProt Q923Y8)
# Sequence (Q923Y8 whole entry): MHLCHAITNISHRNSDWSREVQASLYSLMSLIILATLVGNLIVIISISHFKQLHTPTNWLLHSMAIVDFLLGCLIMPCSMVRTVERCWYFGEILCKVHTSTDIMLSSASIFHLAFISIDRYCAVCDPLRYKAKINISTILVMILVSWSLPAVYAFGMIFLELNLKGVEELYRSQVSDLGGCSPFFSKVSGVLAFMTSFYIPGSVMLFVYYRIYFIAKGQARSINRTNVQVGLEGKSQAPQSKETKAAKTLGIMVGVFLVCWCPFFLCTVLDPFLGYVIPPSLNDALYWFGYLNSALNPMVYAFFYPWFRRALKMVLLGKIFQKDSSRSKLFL
# experimentDescription: Agonist activity at mouse TAAR1 expressed in HEK293 cells coexpressing cAMP BRET biosensor assessed as induction of CAMP production after 20 mins by bioluminescence resonance energy transfer assay
measurementKind: pEC50
Schema: pEC50 number; meaning minus log10 of the concentration expressed in molar units.

Q: Request: pEC50, test system Trace amine-associated receptor 1 (Mus musculus, UniProt Q923Y8), entry NCCc1ccccc1
Result: 6.86

Q: Please do the same for NCCOc1ccc(Cc2ccc(N)cc2)cc1 as well.
Result: 5.77

Q: Please do the same for NCCc1ccc(Cc2ccc(N)cc2)cc1 as well.
Result: 6.10

Q: Please do the same for NCCOc1ccc(Cc2ccc(O)cc2)cc1 as well.
Result: 5.66

Q: Please do the same for NCCc1ccc(Oc2ccc(O)cc2)c(I)c1 as well.
Result: 6.72

Q: Please do the same for Cc1cc(OCCN)ccc1Cc1ccc(N)cc1 as well.
Result: 6.62
